Procedure summary: Canine pharmacokinetic assay
Type: in vivo, male Beagle dogs
Condition parameters: male, Beagle, dog, plasma; canine; oral gavage administration 3 mg/kg
Measurement name: AUC(0-t) (µg·h/mL)
Kindly answer with a numeric value in µg·h/mL, unit omitted.

I'd like to know its AUC(0-t). The compound in question is C[C@H](NC(=O)c1c(C(F)F)nn(C)c1Oc1cccc(C(F)(F)F)c1)c1ccc(C(=O)O)cc1 [Control Compound, reference compound]
6.8

Again, but for "C[C@H](NC(=O)c1c(C(F)F)nn(C)c1Oc1csc(C(F)(F)F)c1)c1ccc(C(=O)O)cc1"
7.19

Again, but for "C[C@H](NC(=O)c1c(C(F)F)nn(C)c1Oc1cccc(C(C)(F)F)c1)c1ccc(C(=O)O)cc1"
10.3

Values from patent US12643889B2
